- Study system: 5-HT2C receptor (Homo sapiens)
- Construct: alternatively choroid plexus tissue
- Sequence (P28335 33-458): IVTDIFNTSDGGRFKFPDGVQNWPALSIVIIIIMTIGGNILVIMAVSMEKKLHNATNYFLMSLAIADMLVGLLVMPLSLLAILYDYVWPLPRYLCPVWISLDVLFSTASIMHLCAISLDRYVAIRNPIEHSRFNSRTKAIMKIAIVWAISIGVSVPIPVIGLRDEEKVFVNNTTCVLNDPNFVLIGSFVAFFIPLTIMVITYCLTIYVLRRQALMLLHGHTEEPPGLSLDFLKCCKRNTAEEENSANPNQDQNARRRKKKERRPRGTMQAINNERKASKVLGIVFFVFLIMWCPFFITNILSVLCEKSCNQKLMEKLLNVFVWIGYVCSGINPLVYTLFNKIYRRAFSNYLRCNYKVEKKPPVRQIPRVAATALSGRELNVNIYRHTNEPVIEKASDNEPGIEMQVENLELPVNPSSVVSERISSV
- Assay comment: Radioligand binding assay for 5-HT2C receptor ([3H]-mesulergine competitive binding)
- Setup conditions: choroid plexus or recombinant 5-HT2C receptor expressed in CHO-K1 cells, read-out: binding affinity to 5-HT2C serotonin receptor expressed as IC50 value
Observation type: IC50

In [3]: df
Out[3]:
                                smiles_text    result
0  CN(C)CCCOCc1nc2c(s1)-c1ccccc1Oc1ccc(Cl)cc1-2  < 200 nM

* * *

- Study system: 5-HT2A receptor (Homo sapiens)
- Construct: alternatively human cortex tissue
- Sequence (P28223 whole entry): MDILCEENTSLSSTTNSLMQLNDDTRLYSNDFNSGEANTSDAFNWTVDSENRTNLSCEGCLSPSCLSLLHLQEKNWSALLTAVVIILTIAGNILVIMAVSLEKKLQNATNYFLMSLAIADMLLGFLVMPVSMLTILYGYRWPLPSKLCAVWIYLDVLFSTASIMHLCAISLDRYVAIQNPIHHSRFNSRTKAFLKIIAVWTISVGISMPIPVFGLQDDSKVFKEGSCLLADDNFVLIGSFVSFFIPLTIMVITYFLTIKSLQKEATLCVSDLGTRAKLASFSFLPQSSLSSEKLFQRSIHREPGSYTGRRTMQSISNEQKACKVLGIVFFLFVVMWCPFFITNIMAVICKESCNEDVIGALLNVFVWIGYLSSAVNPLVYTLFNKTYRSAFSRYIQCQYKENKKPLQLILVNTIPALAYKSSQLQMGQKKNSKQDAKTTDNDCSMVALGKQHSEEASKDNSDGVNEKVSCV
- Assay comment: Radioligand binding assay for 5-HT2A receptor ([3H]-ketanserin competitive binding)
- Setup conditions: human cortex or recombinant 5-HT2A receptor expressed in CHO-K1 cells, read-out: binding affinity to 5-HT2A serotonin receptor expressed as IC50 value
Observation type: IC50

In [3]: df
Out[3]:
                                smiles_text    result
0  CN(C)CCCOCc1nc2c(s1)-c1ccccc1Oc1ccc(Cl)cc1-2  < 200 nM
